# study-system: pY641-STAT6 in PBMC (Homo sapiens, UniProt P42226)
# Construct: Cryopreserved Peripheral Blood Mononuclear Cells (PBMC) are from AllCells; host or cells: cryopreserved PBMC
# Sequence (P42226 whole entry): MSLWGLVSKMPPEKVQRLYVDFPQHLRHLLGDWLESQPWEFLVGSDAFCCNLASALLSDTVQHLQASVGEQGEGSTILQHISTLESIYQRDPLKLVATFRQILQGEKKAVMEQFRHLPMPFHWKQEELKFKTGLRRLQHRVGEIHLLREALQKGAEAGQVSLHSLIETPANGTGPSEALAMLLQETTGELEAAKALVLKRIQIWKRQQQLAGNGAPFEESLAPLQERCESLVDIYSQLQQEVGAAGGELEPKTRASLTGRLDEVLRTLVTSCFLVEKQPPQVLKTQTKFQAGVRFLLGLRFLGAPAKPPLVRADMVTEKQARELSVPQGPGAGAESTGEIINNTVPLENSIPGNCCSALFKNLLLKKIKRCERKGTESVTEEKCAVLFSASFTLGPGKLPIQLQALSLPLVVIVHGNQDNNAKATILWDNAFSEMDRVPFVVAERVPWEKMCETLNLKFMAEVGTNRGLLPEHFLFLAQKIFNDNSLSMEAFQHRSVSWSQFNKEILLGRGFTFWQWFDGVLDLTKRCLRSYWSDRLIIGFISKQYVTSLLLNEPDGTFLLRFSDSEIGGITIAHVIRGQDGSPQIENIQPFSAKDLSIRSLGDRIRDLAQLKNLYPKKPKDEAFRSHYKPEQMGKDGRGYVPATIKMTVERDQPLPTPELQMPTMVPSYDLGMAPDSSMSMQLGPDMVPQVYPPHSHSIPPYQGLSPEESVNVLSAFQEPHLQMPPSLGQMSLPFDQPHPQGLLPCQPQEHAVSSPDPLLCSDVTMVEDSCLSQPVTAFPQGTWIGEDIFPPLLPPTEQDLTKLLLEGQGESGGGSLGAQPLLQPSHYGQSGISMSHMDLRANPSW
# experimental-protocol: MSD-pSTAT-PBMC Assay (pSTAT6, IL-4 stimulated)
# Assay type: cell-based
# assay-context: STAT6, PBMC, compound 3 hrs, then 1 ng/mL IL-4 for 10 min; Table 115
# Method: Cryopreserved Peripheral Blood Mononuclear Cells (PBMC) are from AllCells. Recombinant Human IL-4 and IL-6 are from Peprotech. […] Cyropreserved PBMCs were thawed out and allowed to recover overnight in IMDM+10% heat-inactivated FBS prior to plating 50,000 (STAT3) or 25,000 (STAT6) cells per well in 96-well U-bottom tissue culture plates. […] Assay plates were then washed and 150 μL of 1× Read Buffer-T (MSD) was added to each well prior to reading on an SQ120 MSD Plate Reader. […]
pIC50: −log10 of the molar value.
parameter-measured: pIC50

Exam item: pIC50 of CCCCOC(=O)[C@H](C)NP(=O)(Oc1ccccc1)C(F)(F)c1ccc2ccc(C(=O)N[C@H]3CCCC[C@H]4CC[C@@H](C(=O)N5CC(c6ccccc6)CC56CC6)N4C3=O)cc2c1 (stereo partly drawn) on pY641-STAT6 in PBMC (Homo sapiens, UniProt P42226)?
Marked response: 5.52 to 6.00

Exam item: pIC50 of CCCOC(=O)[C@H](C)NP(=O)(Oc1ccccc1)C(C)c1ccc2ccc(C(=O)N[C@H]3CCCC[C@H]4CC[C@@H](C(=O)N5C[C@@H](c6ccccc6)CC56CC6)N4C3=O)cc2c1 (single isomer, unassigned) on pY641-STAT6 in PBMC (Homo sapiens, UniProt P42226)?
Marked response: < 5.52

Exam item: pIC50 of CCCOC(=O)[C@H](C)NP(=O)(Oc1ccccc1)[C@H](F)c1ccc2sc(C(=O)N[C@H]3C[C@H](C)C[C@H]4CC[C@@H](C(=O)N5C[C@H](c6ccccc6)[C@@H](C#N)C56CC6)N4C3=O)cc2c1 (stereo partly drawn) on pY641-STAT6 in PBMC (Homo sapiens, UniProt P42226)?
Marked response: > 7.00

Exam item: pIC50 of CCCOC(=O)[C@H](C)NP(=O)(Oc1c(C)cccc1C)[C@@H](F)c1ccc2sc(C(=O)N[C@H]3CCC[C@H]4CC[C@@H](C(=O)N5C[C@@H](c6cccnc6)CC56CC6)N4C3=O)cc2c1 (stereo partly drawn) on pY641-STAT6 in PBMC (Homo sapiens, UniProt P42226)?
Marked response: > 7.00

Exam item: pIC50 of CCCOC(=O)[C@H](C)NP(=O)(Oc1ccccc1)C(F)c1ccc2sc(C(=O)N[C@H]3CCCC[C@H]4CC[C@@H](C(=O)N5C[C@@H](c6cccnc6)CC56CC6)N4C3=O)cc2c1 (stereo in doubt) on pY641-STAT6 in PBMC (Homo sapiens, UniProt P42226)?
Marked response: > 7.00

Exam item: pIC50 of CCCOC(=O)[C@H](C)NP(=O)(Oc1ccccc1)[C@@H](F)c1ccc2sc(C(=O)N[C@H]3CCCC[C@H]4CC[C@@H](C(=O)N5C[C@H](c6cccc(C#N)c6)[C@@H](C#N)C56CC6)N4C3=O)cc2c1 (single isomer, unassigned) on pY641-STAT6 in PBMC (Homo sapiens, UniProt P42226)?
Marked response: > 7.00

Exam item: pIC50 of C[C@H](NP(=O)(Oc1ccccc1)[C@@H](F)c1ccc2sc(C(=O)N[C@H]3CCCC[C@H]4CC[C@@H](C(=O)N5C[C@@H](c6cccnc6)CC56CC6)N4C3=O)cc2c1)C(=O)OCC1CCOCC1 (stereo partly drawn) on pY641-STAT6 in PBMC (Homo sapiens, UniProt P42226)?
Marked response: > 7.00

Exam item: pIC50 of CCCOC(=O)[C@H](C)NP(=O)(Oc1ccccc1)C(F)c1ccc2ccc(C(=O)N[C@H]3CCC[C@H]4CC[C@@H](C(=O)N5CC(c6cccnc6)CC56CC6)N4C3=O)cc2c1 (stereo partly drawn) on pY641-STAT6 in PBMC (Homo sapiens, UniProt P42226)?
Marked response: 6.00 to 7.00

Exam item: pIC50 of CCCOC(=O)[C@H](C)NP(=O)(Oc1ccccc1)[C@@H](F)c1ccc2sc(C(=O)N[C@H]3CCCC[C@H]4CC[C@@H](C(=O)N5C(=O)N(c6cccnc6)C(=O)C56CC6)N4C3=O)cc2c1 (stereo partly drawn) on pY641-STAT6 in PBMC (Homo sapiens, UniProt P42226)?
Marked response: > 7.00

These data points were gathered from patent US20250215029A1.
